System: E. faecalis ATCC 29212
Experiment: MIC, CLSI broth microdilution (Table 1)
Format: cell-based
Details: Enterococcus faecalis, ATCC29212; Gram positive; MHB, 37° C., 16-20 hours; read-out: MIC E. faecalis ATCC 29212
Structures can show the parent of a compound that is named as a salt.
Exercise: for every item that follows, state its recorded log10(MIC).
A difference of one corresponds to tenfold MIC; all values are log10 with MIC in mg/L.

Worked cases, log10(MIC) given:
Exercise: Query: log10(MIC); subject: Cc1c(-c2ccc(Cl)cc2)ccn2c(=O)c(C(=O)O)cc(C3CC3)c12 [Example 45 K salt]
Key: -1.19

Exercise: Query: log10(MIC); subject: COc1cc(-c2ccn3c(=O)c(C(=O)O)cc(C4CC4)c3c2C)ccc1N [Example 12 K salt]
Key: -1.19

Please supply log10(MIC) for each of the following items, keeping them in order.
1. Cc1c(-c2ccc(N(C)C)cc2)ccn2c(=O)c(C(=O)O)cc(C3CC3)c12 [Example 25 K salt]
2. Cc1c(-c2cccc(N)c2)c(F)cn2c(=O)c(C(=O)O)cc(C3CC3)c12 [Example 4 K salt]
3. Cc1c(-c2ccc(C(=O)O)cc2)c(F)cn2c(=O)c(C(=O)O)cc(C3CC3)c12 [Example 41 K salt]
4. Cc1cc(-c2ccn3c(=O)c(C(=O)O)cc(C4CC4)c3c2C)c(Cl)cc1N [Example 30 K salt]
5. Cc1c(-c2ccc(N)cc2F)ccn2c(=O)c(C(=O)O)cc(C3CC3)c12 [Example 7 K salt]
6. Cc1c(-c2ccc(C(=O)O)cc2)ccn2c(=O)c(C(=O)O)cc(C3CC3)c12 [Example 37 K salt]
7. CC(=O)Nc1ccc(-c2ccn3c(=O)c(C(=O)O)cc(C4CC4)c3c2C)cc1 [Example 13 K salt]

Key:
1: -0.90; 2: -1.49; 3: -0.60; 4: -1.19; 5: -1.49; 6: -0.30; 7: -1.80

Please supply log10(MIC) for each of the following items, keeping them in order.
1. Cc1c(N2CC[C@H](N)C2)ccn2c(=O)c(C(=O)O)cc(C3CC3)c12 [Example 27 K salt]
2. Cc1c(-c2cccnc2)ccn2c(=O)c(C(=O)O)cc(C3CC3)c12 [Example 17 K salt]
3. Cc1c(-c2ccc(F)cc2)ccn2c(=O)c(C(=O)O)cc(C3CC3)c12 [Example 44 K salt]
4. COc1c(N2C[C@@H]3CCCN[C@@H]3C2)c(F)cc2c(=O)c(C(=O)O)cn(C3CC3)c12 [Moxyfloxacin, reference compound]

Key:
1. 0.60
2. -1.19
3. -1.19
4. -0.60

###

Exercise: for every item that follows, state its recorded MIC.
Test system: H. influenzae ATCC 49247
Experiment: MIC, CLSI broth microdilution (Table 2)
Type: cell-based
Settings: Haemophilus influenzae, ATCC49247; Gram negative; MHB, 37° C., 16-20 hours; read-out: MIC H. influenzae ATCC 49247
Where a name gives a salt, the structure may show the parent alone.
Answers are plain numbers, in µg/mL.

Worked cases, MIC given:
Exercise: Query: MIC; subject: Cc1c(-c2ccc3[nH]ccc3c2)ccn2c(=O)c(C(=O)O)cc(C3CC3)c12 [Example 22 K salt]
Key: 0.016

Exercise: Query: MIC; subject: COc1c(N2C[C@@H]3CCCN[C@@H]3C2)c(F)cc2c(=O)c(C(=O)O)cn(C3CC3)c12 [Moxyfloxacin, reference compound]
Key: 0.032

Exercise: Query: MIC; subject: Cc1c(-c2ccc(C#N)c(F)c2)ccn2c(=O)c(C(=O)O)cc(C3CC3)c12 [Example 40 K salt]
Key: 0.016

Exercise: Query: MIC; subject: Cc1cc(-c2ccn3c(=O)c(C(=O)O)cc(C4CC4)c3c2C)c(Cl)cc1N [Example 30 K salt]
Key: 0.064

Exercise: Query: MIC; subject: Cc1c(-c2ccc(C(=O)O)cc2)c(F)cn2c(=O)c(C(=O)O)cc(C3CC3)c12 [Example 41 K salt]
Key: 0.032

Exercise: Query: MIC; subject: Cc1c(-c2ccc(NC(N)=O)cc2)ccn2c(=O)c(C(=O)O)cc(C3CC3)c12 [Example 24 K salt]
Key: 0.016

Exercise: Query: MIC; subject: COc1ccc(-c2ccn3c(=O)c(C(=O)O)cc(C4CC4)c3c2C)cc1 [Example 47 K salt]
Key: 0.032

Exercise: Query: MIC; subject: Cc1c(-c2cc[nH]c2)ccn2c(=O)c(C(=O)O)cc(C3CC3)c12 [Example 43 K salt]
Key: 0.008

Exercise: Query: MIC; subject: Cc1c(-c2ccc(F)cc2)ccn2c(=O)c(C(=O)O)cc(C3CC3)c12 [Example 44 K salt]
Key: 0.008

Exercise: Query: MIC; subject: Cc1c(-c2ccc(F)c(N)c2)ccn2c(=O)c(C(=O)O)cc(C3CC3)c12 [Example 8 K salt]
Key: 0.064

Please supply MIC for each of the following items, keeping them in order.
1. Cc1c(-c2cccc(N)c2)ccn2c(=O)c(C(=O)O)cc(C3CC3)c12 [Example 3 K salt]
2. CC(=O)Nc1ccc(-c2ccn3c(=O)c(C(=O)O)cc(C4CC4)c3c2C)cc1 [Example 13 K salt]

Key:
0.016
0.016

###

System: H. influenzae ATCC 49247
Assay: MIC, CLSI broth microdilution (Table 2)
Type: cell-based
Details: Haemophilus influenzae, ATCC49247; Gram negative; MHB, 37° C., 16-20 hours; read-out: MIC H. influenzae ATCC 49247
Counter-ions that a name gives are not always drawn.
parameter: MIC (µg/mL)
Give bare numbers, in µg/mL.

Worked cases, MIC given:
Exercise: Query: MIC; subject: Cc1c(-c2cccc(F)c2)ccn2c(=O)c(C(=O)O)cc(C3CC3)c12 [Example 10 K salt]
Key: 0.008

Exercise: Query: MIC; subject: Cc1c(N2CCNCC2)ccn2c(=O)c(C(=O)O)cc(C3CC3)c12 [Example 34 K salt]
Key: 0.064

Please supply MIC for each of the following items, keeping them in order.
1. Cc1c(-c2ccc(N(C)C)cc2)ccn2c(=O)c(C(=O)O)cc(C3CC3)c12 [Example 25 K salt]
2. Cc1c(-c2ccc(N)cc2)ccn2c(=O)c(C(=O)O)cc(C3CC3)c12 [Example 18 K salt]
3. Cc1c(-c2ccc(N)cc2F)ccn2c(=O)c(C(=O)O)cc(C3CC3)c12 [Example 7 K salt]
4. Cc1c(-c2ccc(Cl)cc2)ccn2c(=O)c(C(=O)O)cc(C3CC3)c12 [Example 45 K salt]
5. Cc1c(-c2cc(N)cc(F)c2)ccn2c(=O)c(C(=O)O)cc(C3CC3)c12 [Example 9 K salt]
6. Cc1cc(-c2ccn3c(=O)c(C(=O)O)cc(C4CC4)c3c2C)ccc1N [Example 19 K salt]
7. Cc1c(-c2ccc(NS(C)(=O)=O)cc2)ccn2c(=O)c(C(=O)O)cc(C3CC3)c12 [Example 14 K salt]

Key:
[0.064, 0.008, 0.008, 0.016, 0.008, 0.008, 0.016]

Please supply MIC for each of the following items, keeping them in order.
1. Cc1c(-c2ccc(C(=O)O)cc2)ccn2c(=O)c(C(=O)O)cc(C3CC3)c12 [Example 37 K salt]
2. Cc1c(N2CC[C@H](N)C2)ccn2c(=O)c(C(=O)O)cc(C3CC3)c12 [Example 27 K salt]

Key:
0.064
0.125

###

Test system: Burkholderia mallei ATCC 23344
Assay: microbe, parasite or virus in culture
Format: cell-based
Conditions: ATCC23344
Where a name gives a salt, the structure may show the parent alone.
parameter: MIC (µg/mL)
Numbers only, in µg/mL.

Worked cases, MIC given:
Exercise: Query: MIC; subject: Cc1c(-c2ccc(O)cc2)ccn2c(=O)c(C(=O)O)cc(C3CC3)c12 [Example 46 K salt]
Key: 0.063

Exercise: Query: MIC; subject: Cc1c(-c2ccnc(F)c2)ccn2c(=O)c(C(=O)O)cc(C3CC3)c12 [Example 20 K salt]
Key: 0.125

Exercise: Query: MIC; subject: Cc1c(-c2ccncc2)ccn2c(=O)c(C(=O)O)cc(C3CC3)c12 [Example 16 K salt]
Key: 0.125

Exercise: Query: MIC; subject: Cc1c(-c2ccc(N)c(F)c2)ccn2c(=O)c(C(=O)O)cc(C3CC3)c12 [Example 2 K salt]
Key: 0.063

Exercise: Query: MIC; subject: Cc1c(-c2ccc(CO)cc2)ccn2c(=O)c(C(=O)O)cc(C3CC3)c12 [Example 48 K salt]
Key: 0.125

Please supply MIC for each of the following items, keeping them in order.
1. Cc1c(-c2ccc(F)c(N)c2)ccn2c(=O)c(C(=O)O)cc(C3CC3)c12 [Example 8 K salt]
2. Cc1c(-c2ccc3[nH]ncc3c2)ccn2c(=O)c(C(=O)O)cc(C3CC3)c12 [Example 23 K salt]
3. Cc1c(C2=CCNCC2)ccn2c(=O)c(C(=O)O)cc(C3CC3)c12

Key:
1. 0.25
2. 0.063
3. 2
